src = paper PMC5672931

Assay: pharmacokinetics, plasma concentrations by LC-MS/MS
Conditions: human, plasma, intravenous, 29.6 mg m^−2, AUC(tf), mean, 2-h infusion, 29.6 mg m^−2, n=5
value-type: AUC (ng·h/mL)

[[record]]
compound = "CCc1cnn2c(NCc3ccc[n+]([O-])c3)cc(N3CCCC[C@H]3CCO)nc12 [dinaciclib, Dinaciclib]"
unit_abbrev = "ng·h/mL"
value_measured = 2060


###

Assay: pharmacokinetics, plasma concentrations by LC-MS/MS
Settings: human, plasma, intravenous, 50 mg m^−2, Tmax, median, 8-h infusion, 50 mg m^−2, n=2
value-type: Tmax (h)

[[record]]
compound = "CCc1cnn2c(NCc3ccc[n+]([O-])c3)cc(N3CCCC[C@H]3CCO)nc12 [dinaciclib, Dinaciclib]"
value_measured = 8


###

Assay: pharmacokinetics, plasma concentrations by LC-MS/MS
Conditions: human, plasma, intravenous, 7.4 mg m^−2, Tmax, median, 8-h infusion, 7.4 mg m^−2, n=4
value-type: Tmax (h)

[[record]]
record_smiles = "CCc1cnn2c(NCc3ccc[n+]([O-])c3)cc(N3CCCC[C@H]3CCO)nc12"
value_type = "Tmax"
unit_abbrev = "h"
value_measured = 4


###

Assay: pharmacokinetics, plasma concentrations by LC-MS/MS
Conditions: human, plasma, intravenous, 14.8 mg m^−2, AUC(l), mean, 2-h infusion, 14.8 mg m^−2, n=1
value-type: AUC

[[record]]
record_smiles = "CCc1cnn2c(NCc3ccc[n+]([O-])c3)cc(N3CCCC[C@H]3CCO)nc12"
value_measured = "1060 ng·h/mL"


###

Experiment: pharmacokinetics, plasma concentrations by LC-MS/MS
Settings: human, plasma, intravenous, 14.6 mg m^−2, Tmax, median, 24-h infusion, 14.6 mg m^−2, n=2
value-type: Tmax (h)

[[record]]
compound = "CCc1cnn2c(NCc3ccc[n+]([O-])c3)cc(N3CCCC[C@H]3CCO)nc12 [dinaciclib, Dinaciclib]"
value_measured = 15


###

Assay: pharmacokinetics, plasma concentrations by LC-MS/MS
Conditions: human, plasma, intravenous, 41.4 mg m^−2, AUC(l), mean, 2-h infusion, 41.4 mg m^−2, n=6
value-type: AUC (ng·h/mL)

[[record]]
record_smiles = "CCc1cnn2c(NCc3ccc[n+]([O-])c3)cc(N3CCCC[C@H]3CCO)nc12"
unit_abbrev = "ng·h/mL"
value_measured = 2880


###

Assay: pharmacokinetics, plasma concentrations by LC-MS/MS
Settings: human, plasma, intravenous, Tmax, after the initiation of the 2-h infusion, 35 patients in Part 1, across doses
value-type: Tmax

[[record]]
record_smiles = "CCc1cnn2c(NCc3ccc[n+]([O-])c3)cc(N3CCCC[C@H]3CCO)nc12"
value_measured = "1 to 2 h"


###

Assay: pharmacokinetics, plasma concentrations by LC-MS/MS
Settings: human, plasma, intravenous, 41.4 mg m^−2, Tmax, median, 8-h infusion, 41.4 mg m^−2, n=1
value-type: Tmax (h)

[[record]]
record_smiles = "CCc1cnn2c(NCc3ccc[n+]([O-])c3)cc(N3CCCC[C@H]3CCO)nc12"
unit_abbrev = "h"
value_measured = 4


###

Test: pharmacokinetics, plasma concentrations by LC-MS/MS
Settings: human, plasma, intravenous, 29.6 mg m^−2, Cmax, mean, 2-h infusion, 29.6 mg m^−2, n=6
value-type: Cmax

[[record]]
compound = "CCc1cnn2c(NCc3ccc[n+]([O-])c3)cc(N3CCCC[C@H]3CCO)nc12 [dinaciclib, Dinaciclib]"
value_measured = "890 ng/mL"


###

Assay: pharmacokinetics, plasma concentrations by LC-MS/MS
Details: human, plasma, intravenous, 14.6 mg m^−2, AUC(tf), mean, 24-h infusion, 14.6 mg m^−2, n=3
value-type: AUC

[[record]]
record_smiles = "CCc1cnn2c(NCc3ccc[n+]([O-])c3)cc(N3CCCC[C@H]3CCO)nc12"
value_measured = "2590 ng·h/mL"


###

Experiment: pharmacokinetics, plasma concentrations by LC-MS/MS
Conditions: human, plasma, intravenous, 50 mg m^−2, AUC(l), mean, 2-h infusion, 50 mg m^−2, n=15
value-type: AUC

[[record]]
record_smiles = "CCc1cnn2c(NCc3ccc[n+]([O-])c3)cc(N3CCCC[C@H]3CCO)nc12"
value_measured = "3940 ng·h/mL"


###

Assay: pharmacokinetics, plasma concentrations by LC-MS/MS
Details: human, plasma, intravenous, 14.8 mg m^−2, Tmax, median, 8-h infusion, 14.8 mg m^−2, n=3
value-type: Tmax (h)

[[record]]
record_smiles = "CCc1cnn2c(NCc3ccc[n+]([O-])c3)cc(N3CCCC[C@H]3CCO)nc12"
value_measured = 4


###

Assay: pharmacokinetics, plasma concentrations by LC-MS/MS
Conditions: human, plasma, intravenous, 29.6 mg m^−2, AUC(l), mean, 2-h infusion, 29.6 mg m^−2, n=5
value-type: AUC

[[record]]
compound = "CCc1cnn2c(NCc3ccc[n+]([O-])c3)cc(N3CCCC[C@H]3CCO)nc12 [dinaciclib, Dinaciclib]"
value_measured = "2440 ng·h/mL"


###

Assay: pharmacokinetics, plasma concentrations by LC-MS/MS
Details: human, plasma, intravenous
value-type: half-life

[[record]]
record_smiles = "CCc1cnn2c(NCc3ccc[n+]([O-])c3)cc(N3CCCC[C@H]3CCO)nc12"
value_measured = "84 to 198 min"


###

Test: pharmacokinetics, plasma concentrations by LC-MS/MS
Conditions: human, plasma, intravenous, 1.85 mg m^−2, Cmax, mean, 2-h infusion, 1.85 mg m^−2, n=1
value-type: Cmax (ng/mL)

[[record]]
record_smiles = "CCc1cnn2c(NCc3ccc[n+]([O-])c3)cc(N3CCCC[C@H]3CCO)nc12"
value_measured = 62.5


###

Assay: pharmacokinetics, plasma concentrations by LC-MS/MS
Conditions: human, plasma, intravenous, 50 mg m^−2, AUC(tf), mean, 2-h infusion, 50 mg m^−2, n=15
value-type: AUC

[[record]]
record_smiles = "CCc1cnn2c(NCc3ccc[n+]([O-])c3)cc(N3CCCC[C@H]3CCO)nc12"
value_measured = "3910 ng·h/mL"


###

Test: pharmacokinetics, plasma concentrations by LC-MS/MS
Conditions: human, plasma, intravenous, 7.4 mg m^−2, Tmax, median, 24-h infusion, 7.4 mg m^−2, n=1
value-type: Tmax

[[record]]
compound = "CCc1cnn2c(NCc3ccc[n+]([O-])c3)cc(N3CCCC[C@H]3CCO)nc12 [dinaciclib, Dinaciclib]"
value_type = "Tmax"
value_measured = "24 h"


###

Experiment: pharmacokinetics, plasma concentrations by LC-MS/MS
Settings: human, plasma, intravenous, 58 mg m^−2, AUC(l), mean, 2-h infusion, 58 mg m^−2, n=4
value-type: AUC

[[record]]
record_smiles = "CCc1cnn2c(NCc3ccc[n+]([O-])c3)cc(N3CCCC[C@H]3CCO)nc12"
value_measured = "3370 ng·h/mL"


###

Assay: pharmacokinetics, plasma concentrations by LC-MS/MS
Settings: human, plasma, intravenous, 29.6 mg m^−2, Cmax, mean, 8-h infusion, 29.6 mg m^−2, n=3
value-type: Cmax (ng/mL)

[[record]]
compound = "CCc1cnn2c(NCc3ccc[n+]([O-])c3)cc(N3CCCC[C@H]3CCO)nc12 [dinaciclib, Dinaciclib]"
unit_abbrev = "ng/mL"
value_measured = 333


###

Assay: pharmacokinetics, plasma concentrations by LC-MS/MS
Details: human, plasma, intravenous, 14.8 mg m^−2
value-type: half-life

[[record]]
compound = "CCc1cnn2c(NCc3ccc[n+]([O-])c3)cc(N3CCCC[C@H]3CCO)nc12 [dinaciclib, Dinaciclib]"
value_measured = "2.78 h"


###

Assay: pharmacokinetics, plasma concentrations by LC-MS/MS
Settings: human, plasma, intravenous, 41.4 mg m^−2, Cmax, mean, 2-h infusion, 41.4 mg m^−2, n=6
value-type: Cmax (ng/mL)

[[record]]
compound = "CCc1cnn2c(NCc3ccc[n+]([O-])c3)cc(N3CCCC[C@H]3CCO)nc12 [dinaciclib, Dinaciclib]"
value_type = "Cmax"
value_measured = 1300


###

Assay: pharmacokinetics, plasma concentrations by LC-MS/MS
Conditions: human, plasma, intravenous, 50 mg m^−2, Cmax, mean, 8-h infusion, 50 mg m^−2, n=2
value-type: Cmax (ng/mL)

[[record]]
record_smiles = "CCc1cnn2c(NCc3ccc[n+]([O-])c3)cc(N3CCCC[C@H]3CCO)nc12"
value_measured = 475


###

Test: pharmacokinetics, plasma concentrations by LC-MS/MS
Conditions: human, plasma, intravenous, 41.4 mg m^−2, AUC(tf), mean, 8-h infusion, 41.4 mg m^−2, n=2
value-type: AUC (ng·h/mL)

[[record]]
record_smiles = "CCc1cnn2c(NCc3ccc[n+]([O-])c3)cc(N3CCCC[C@H]3CCO)nc12"
value_type = "AUC"
value_measured = 3300


###

Experiment: pharmacokinetics, plasma concentrations by LC-MS/MS
Details: human, plasma, intravenous, 1.85 mg m^−2, AUC(tf), mean, 2-h infusion, 1.85 mg m^−2, n=1
value-type: AUC

[[record]]
record_smiles = "CCc1cnn2c(NCc3ccc[n+]([O-])c3)cc(N3CCCC[C@H]3CCO)nc12"
value_measured = "135 ng·h/mL"

